system tested: human GABAA α1β2γ1 receptor (Homo sapiens (Human), UniProt P14867+Q8N1C3)
procedure text: Radioligand binding assay, competition for [3H]RO7239181, γ1-containing GABAA subtypes
assay setup: Ki h-GABAA α1β2γ1, membranes of HEK293F cells, [3H]RO7239181 20-30 nM, Table 1
Response field label takes fulfilled when Ki is strictly below 50 nM and not fulfilled in all other cases.

# count of solved cases: 6
Cc1nnc2n1-c1sc3c(c1C(c1c(F)cccc1F)=NC2)CCCCC3; fulfilled
Cc1nnc2n1-c1sc3c(c1C(c1c(F)cccc1F)=N[C@H]2C)CCCC(F)(F)C3; not fulfilled
Cc1nnc2n1-c1sc3c(c1C(c1c(F)cccc1F)=N[C@H]2C)CC[C@H](F)CC3 (single isomer, unassigned); not fulfilled
Cc1nnc2n1-c1sc3c(c1C(c1c(F)cccc1Cl)=N[C@H]2C)COCCO3; fulfilled
Cc1nnc2n1-c1sc3c(c1C(c1c(F)cccc1F)=N[C@H]2C)COCCO3; not fulfilled
Cc1nnc2n1-c1sc3c(c1C(c1c(F)cccc1F)=N[C@H]2C)CCCCC3; fulfilled

Could you please tell me whether Ki recorded for Cc1nnc2n1-c1sc3c(c1C(c1c(F)cccc1F)=N[C@H]2C)CCC[C@H](F)C3 (single isomer, unassigned) is less than 50 nM?
fulfilled

Could you please tell me whether Ki recorded for Cc1nnc2n1-c1sc3c(c1C(c1c(F)cccc1F)=N[C@H]2C)OCCCC3 is less than 50 nM?
not fulfilled

Could you please tell me whether Ki recorded for C[C@@H]1N=C(c2c(F)cccc2F)c2c(sc3c2COCCO3)-n2cc(C(=O)NCC(C)(C)O)nc21 is less than 50 nM?
fulfilled
